# PROCEDURE TEXT: yeast display, Sf9 membrane polyspecificity reagent, FACS + sequencing; frameworks hold sequencing errors
EXPERIMENTAL READOUT: polyreactivity (PSR sort gate)

# annotated cases, reported polyreactivity (PSR sort gate) shown
{"SEQUENCE RECORD": "QDQLVESGGGLVQAGGSLRLSCHSSGFIFTDYAMGWYRQAPGKERELVARITSGGASTYYADSVKGRFTISRDIAKNTVYLQMNSLKPEDTAVYYCAAQARCWGYVYWGQGTQVTVSS", "READOUT VALUE": "low polyreactivity"}
{"SEQUENCE RECORD": "QVQLVESGGGLVQAGGSLRLSCAASGSTLRYYAMGSYRQAPGKERELVAAISTGGSTYYADSVKGRFTISRDNAKNTVYLQMNSLKPEDTAVYYSAADGYAHVWDYAYDYWGQGTQVTVSS", "READOUT VALUE": "low polyreactivity"}
{"SEQUENCE RECORD": "QVQHVESGGGLVQAGGSLRLSCAASGFTFGYYAMGWYRQAPGKERELVAAISGSGGGTYYADSVKGRFTISRDNAKNTVYLQMNSLKPEDTAVYYCNTGRYDRKYDYWGQGTQVTVSS", "READOUT VALUE": "high polyreactivity"}
{"SEQUENCE RECORD": "QVQLVQTGGGLVQAGGSLRLSCAASGRIFLSYTRGWYSQAPGKERELVATIDSRVSTNYADSVKGRFTISRDNAKNTVYLQMNSLKPEDTAVYYCNADGFYSSHGYDYCGQGTQVTVSS", "READOUT VALUE": "low polyreactivity"}

Next, consider the following sequence.
Fill in: polyreactivity (PSR sort gate) of `QVQLVESGGGLVQAGGSLRLSCAASGFIFRYYAMGWARQAPAKERELVAAISWSGTRTFYADSVKARFTISRDNAKNTVYLQMNSLKPEDTAVYYCAAETTGYDSYIQYEYWGQGTQVTVSS` is ___
high polyreactivity

---

# PROCEDURE TEXT: yeast display, Sf9 membrane polyspecificity reagent, FACS + sequencing; frameworks hold sequencing errors
EXPERIMENTAL READOUT: polyreactivity (PSR sort gate)

# annotated cases, reported polyreactivity (PSR sort gate) shown
{"SEQUENCE RECORD": "QVQLVESGGGLVQAGGSLRLSRAASGSIFKYYAMGWYRQAPGKERELVAAITYSGGSTFYADSVKGRFTISRDNAKNTVYLQMNSLKPEDTAVYYCNKVYKSYYWGGYDWGQGTQVTVSS", "polyreactivity (PSR sort gate)": "high polyreactivity"}
{"SEQUENCE RECORD": "QVHLVESGGRLVQAGGSLRLSCAASGFTFSYYAMGWYRQAPGKERELVASISRSVNTYYADSVKGRFTISRDNAKNTVYLQMNSLKTEDTAVYYCAAKRISYYSYNFDYWGQGTQVTVSS", "polyreactivity (PSR sort gate)": "high polyreactivity"}
{"SEQUENCE RECORD": "QVQLVESRGGLVQAGGSLRLSSAASGLTLYGYTMGWYRQAPGKERELVATMTSGRDSTYYADSVKGRFTISGDNAKNTFYLEMHCLKPEDTAVYYCGAPYAGWRDGGDYWGQGTQVTVSS", "polyreactivity (PSR sort gate)": "low polyreactivity"}
{"SEQUENCE RECORD": "QVQLVESGGGLVQAGGSLRLSCAASGNTFGKYGVGWYRQAPGKEREFVAAITSRGTSTYYADSVKGRFTISRDNEKNTVYLQMNSLKPEDTAVYYCNARPRYKYPRYDYWGQGTQVTVSS", "polyreactivity (PSR sort gate)": "high polyreactivity"}
{"SEQUENCE RECORD": "QVQLVESGGGLDQARGSLRLSCAASGSITTFYAMGWSRQAHGKERELVAAISSSGGSTYYADSVKGRFTISRDNAKNTVYLQMNSLKPEDTAVYSCAAKGYPSRYSYGWYNYWGQGTQVTLSS", "polyreactivity (PSR sort gate)": "high polyreactivity"}

State recorded polyreactivity (PSR sort gate) for all listed sequences.
1. QVQLVESGGGLVQAGGSLRLSCAGSGFILGYNAMGWYRQAPGKERELVAVIDSIGDGTYYADSVKGRFTISRDNAKNTVYLQMISLKPEDTAVYYCDVDDYYEMDYWGQGTQVTVSS
2. QVQLVESGGGLVQAGGSLRLSCAASGSTFPSNAMGWYRQAPGKERELVAAISRGGGTTYYADSVKGRFTISRDNAKNTVYLQMNSLKPEDTAVYYCATRGSVGWFDGGGYWGQGTQVTVSS
3. QVQLVESGGGLVQAGGSLRLSCAASGSTLDGYGMRWYRQAPGKERELVAVITIGGGRTYYADSVKGRFTISRDNAKNTVYLQMNSLKPEDTAVSYCAAKGWRRYYIGDYWGQGTQVTVSS
4. QVQLVESGGGLVQAGGSLRLSCAASGRTFPTNAMGWYIQAPGKERELVAVISRNSGRTYYADSVKGRFTISRDNAMNTVYFQMNSLKPEDTAVYYCAADKYTRAYYYWGQGTQVTVSS

1: low polyreactivity; 2: high polyreactivity; 3: high polyreactivity; 4: high polyreactivity

---

# PROCEDURE TEXT: yeast display, Sf9 membrane polyspecificity reagent, FACS + sequencing; frameworks hold sequencing errors
EXPERIMENTAL READOUT: polyreactivity (PSR sort gate)

{"SEQUENCE RECORD": "QVQLVESGGGLVQAGGSLRLSCAASGSNFAYNAMGWYRQAPGKERELVAGITTSGSRTYYADSVKGRFTISRDNAKNTVYLQMNSLKPEDTAVYYCAADPYFYPIYDYWGQGTQVTVSS", "polyreactivity (PSR sort gate)": "low polyreactivity"}
{"SEQUENCE RECORD": "QVQLVESGGGLVQAGGSLRLSCAASGRTFYSYAKGWYRQAPGKERELVASITSTGSTYYADSVKGRFTISRDNAKNTVYLQMNSLKPEDTAVYYCAARRQPRYSQRSTYYYWGQGTQVTVSS", "polyreactivity (PSR sort gate)": "high polyreactivity"}
{"SEQUENCE RECORD": "QVQLVESGGGLVQAGGSLRLSCAASGFILYGNARGWYRQAPGKERELVAAISSSGRTNYADYVKGRFTISRDNAKNTVYLQMNRLKPEDTAVYYCADYVRAGYGMGYWGQGTQVTVSS", "polyreactivity (PSR sort gate)": "low polyreactivity"}
{"SEQUENCE RECORD": "QVQLVESGGGLDQAGGSLRLICAASGRIFKWYAMGWYRQAPGKERELVATITWSGGSTYYADSVKGRFTISRDNAQNTVYLQMNSLKAEDTAVYYCNADTWLALPCFDYWGQGTQVTVSS", "polyreactivity (PSR sort gate)": "high polyreactivity"}
{"SEQUENCE RECORD": "QVQLVESWGGLVQAGGSLRLSSAASGLTFWYYAMGCNRQAPGKESELVAAITSVGSSYYADSVKGRFTISRDNAKQTVYLQMNSLKPEDTAVYYCAAGVPPLYFRRGGDYWGQGTQVTVSS", "polyreactivity (PSR sort gate)": "high polyreactivity"}

State recorded polyreactivity (PSR sort gate) for all listed sequences.
1. QVQLVESGGGLVQAGGSLRLSCAASGSTFASYAMGWYRQAPGKEREFVAAITRSGTSTYYADSVQGRFTISRDNAKNTVYLQMNSLKPEDTAVYYCNATRRTVGFGYWGQGTQVPVSS
2. QVQLVESGGGLVQAGGSLRLSCAASGSIVVNNGMGWYRQAPGKERELVATISERGGGTYYADSVKGRFTISRDNAKNTVYLQMNSLKPEDTAVYYCAARVPRFYFVPLYYWGQGTQVTVSS

high polyreactivity
low polyreactivity

State recorded polyreactivity (PSR sort gate) for all listed sequences.
1. QVQLVESGGGLVQAGGSLRLSCAASGRIFWDNAMGWYRQAPGKERELVADITWRSDSTYYADSVKGRFTISRDNAKNTVYLQMNSLKPEATAVYYCAKPINIYPYDYWGQGTQVTVSS
2. QVQLVESGGGLVQAGGSLRLSCAASGFIFYDYAMGWYRQAPGKEREMVAGITDSGGSTSYADSVKGRFTISRDNAKNTVYLQMNSLKPEDTAVYYCAADNYVRAGINYDYWGQGTQVTVSS
3. QVQLVESGGGLVQAGGSLRLSCAASGSIFNSYDMGWYRQAPGKERELVAAIRSRVGSTYYADSVKGRFTISRDNAKNSVYLQMNSLKQEDTAVYYCIKDNAVDRLPWFQVTYDYWGQGTQVTVSS
4. QVQLVESGGGLVQAGGSLRLSCAASGRIFDANAMGWYRQAPGKERELVAAITVSGGSTYYADSVKGRFTISRDNAKNTVYLEMNSLKPEDTAVYYCAKSLVPWWYKVDYDYWGQGTQVTVSS
5. QVQLVESGGGLVQAGGSLRLSCAASGSIFGYNAMGWYRQAPGKERELVAAISYSGGRTYYADSVKGRFTISRDNAKHTVYFQKNRLKPEDTAVYYCAKYKVGYVPSGYRYDSWGQGTQVTVSS

1. low polyreactivity
2. low polyreactivity
3. low polyreactivity
4. low polyreactivity
5. high polyreactivity

// data source = the nanobody polyreactivity screen of Harvey et al. (2022)
